assay-target: T1, human serum albumin (human, UniProt P02768 25-609)
T1 construct: mature; Bought purified serum albumin; also called HSA; Human albumin
procedure-summary: SPR, Fab captured; albumin taken as HSA;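 note: antibody captured on the sensor surface, albumin injected for a 3 min association phase, then dissociation followed, with signals corrected against a blank flow cell and buffer-only injections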
Each record here notes measured kon.
Quick note: unit goes after the number.

# binder, experimental-endpoint, reported-value
data = [
    ("CA645 gL17gH5 Fab (Fab, V domains shown, Fab: human gamma1 CH1, human kappa (Km3); Kabat numbering) VH: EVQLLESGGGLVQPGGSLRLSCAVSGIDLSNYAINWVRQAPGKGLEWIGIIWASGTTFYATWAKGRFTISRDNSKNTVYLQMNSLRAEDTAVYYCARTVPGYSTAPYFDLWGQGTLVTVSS VL: DIQMTQSPSSVSASVGDRVTITCQSSPSVWNNFLSWYQQKPGKAPKLLIYEASKLTSGVPSRFSGSGSGTDFTLTISSLQPEDFATYYCGGGYSSISDTTFGGGTKVEIK", "kon", "58800 M⁻¹ s⁻¹"),
]

We next turn to a different binder, shown below.
What measured kon goes with CA645 gL18gH5 Fab (Fab, V domains shown, Fab: human gamma1 CH1, human kappa (Km3); Kabat numbering) VH: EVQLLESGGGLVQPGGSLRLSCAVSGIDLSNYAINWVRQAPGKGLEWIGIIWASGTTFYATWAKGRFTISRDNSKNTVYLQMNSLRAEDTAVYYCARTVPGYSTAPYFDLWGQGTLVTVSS VL: DIQMTQSPSSVSASVGDRVTITCQSSPSVWINFLSWYQQKPGKAPKLLIYEASKLTSGVPSRFSGSGSGTDFTLTISSLQPEDFATYYCGGGYSSISDTTFGGGTKVEIK ?
53200 M⁻¹ s⁻¹
